Target: DNA (cytosine-5)-methyltransferase 1 (Homo sapiens)
Assay: inhibition of human DNMT1, hit confirmation – biochemical, molecular beacon, fluorescence, single concentration (AID 602385)
Settings: DNMT1 molecular beacon HinP1I cleavage, at 10 µM
Hit rate of the full screen: of about 2,300 compounds, about 180 (7.8%) were called active.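 The calls were made as follows: active = average inhibition of at least 30% in the single-concentration confirmation test; inactive = the rest.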 Not all results are given here.
Respond only with the outcome that fits, drawn from active, inactive

C/C(=N\Nc1ccc(S(N)(=O)=O)cc1[N+](=O)[O-])c1cccs1 : inactive

Lab log entry: `O=C(CCS(=O)(=O)c1ccc(Br)cc1)NCCc1ccc(Cl)cc1` — outcome as called in the assay?
inactive

Lab log entry: `O=C(Nc1nc(-c2ccco2)c(-c2ccco2)s1)c1ccco1` — outcome as called in the assay?
inactive

Lab log entry: `O=C(c1ccc(CS(=O)(=O)c2ccccc2)o1)N1CCN(c2ccccc2)CC1` — outcome as called in the assay?
inactive

Lab log entry: `Cc1cc2nc(-c3ccco3)c(Cc3cccc(F)c3)n2c(C)c1Br` — outcome as called in the assay?
inactive

Lab log entry: `COc1ccc(-n2c(SCC(=O)Nc3sc4c(c3C#N)CCCC4)nnc2-c2ccc(O)cc2)cc1` — outcome as called in the assay?
inactive

Lab log entry: `N#Cc1ccccc1CN1C(=O)S/C(=C/c2cccn2-c2cccc(C(=O)O)c2)C1=O` — outcome as called in the assay?
inactive

Lab log entry: CCOC(=O)c1cccc(NC(=O)C2CCCN(S(=O)(=O)c3cnc[nH]3)C2)c1 (stereo unspecified) — outcome as called in the assay?
inactive

Lab log entry: NC(CSC(c1ccccc1)(c1ccccc1)c1ccc(-c2ccccc2)cc1)C(=O)O (stereo unspecified) — outcome as called in the assay?
active

* * *

Molecular target: DNA (cytosine-5)-methyltransferase 1 (Homo sapiens)
Experiment: inhibition of human DNMT1, hit confirmation – biochemical, molecular beacon, fluorescence, single concentration (AID 602385)
Conditions: DNMT1 molecular beacon HinP1I cleavage, at 10 µM
Hit rate of the full screen: of about 2,300 compounds, about 180 (7.8%) were called active.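 The calls were made as follows: active = average inhibition of at least 30% in the single-concentration confirmation test; inactive = the rest.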 A selection follows.
Respond only with the outcome that fits, drawn from active, inactive

Some entries whose results are on file:
CCOc1ccc(CN2CCC(n3nccc3NC(=O)C3CC3)CC2)cc1CO : inactive
CCOc1ccccc1/C=c1\sc2nc(-c3ccco3)nn2c1=O : inactive
COc1ccc(CC(=O)Nc2ccc(-c3nnc(-c4ccccc4)o3)cc2)cc1 : inactive
Cc1ccc(CNC(=O)CSc2nnc3c(n2)[nH]c2ccc(F)cc23)cc1 : inactive
Cc1ccccc1NC(=O)CN1C(=O)N/C(=C\c2cccn2-c2cccc(C(=O)O)c2)C1=O : active
COC(=O)CCCCC1=CCC2C(=O)C=C(O)C2C1 (configuration not stated) : inactive

Let's switch to this compound now.
Lab log entry: `CN(C)/C=C(/C(=O)c1ccc(Cl)cc1)S(=O)(=O)c1ccccc1` — outcome as called in the assay?
inactive
